The reader will find reported BUN values listed item by item below.
Species on record: Rattus norvegicus
method: Open TG-GATES - Regimen: Daily Repeat
Type: toxicity, organism-based, Sprague-Dawley
Parameters: regimen Daily Repeat, gender Male, age 6 weeks
protocol-conditions: in vivo, po, 0 mg/kg, 72 h, tissue Plasma, route gavage, dose level Control, time 3 day
Expressed in mg/dL, but write only the number.

Example entries and their recorded answers appear below.
compound	measure-name	unit	result-number
CC(C)Cc1ccc(C(C)C(=O)O)cc1 (stereo not drawn) [IBUPROFEN]	BUN	mg/dL	17.2
CC[C@@H](CO)NCCN[C@@H](CC)CO [ETHAMBUTOL]	BUN	mg/dL	19.2
O=C(O)COc1nn(Cc2ccccc2)c2ccccc12 [BENDAZAC]	BUN	mg/dL	16.6

response.value for CC(=O)N1CCN(c2ccc(OCC3COC(Cn4ccnc4)(c4ccc(Cl)cc4Cl)O3)cc2)CC1 (stereo not drawn) [KETOCONAZOLE] (field: BUN) = 18.6

response.value for CC(N)=O [ACETAMIDE] (field: BUN) = 15.2

response.value for CCN(CC)N=O [N-NITROSODIETHYLAMINE] (field: BUN) = 16.2

response.value for CC(CCc1ccccc1)NCC(O)c1ccc(O)c(C(N)=O)c1 (stereo not drawn) [LABETALOL] (field: BUN) = 15.4

response.value for CC(=O)Nc1ccc2c(c1)Cc1ccccc1-2 [2-ACETYLAMINOFLUORENE] (field: BUN) = 15.2

---

The reader will find reported MCH values listed item by item below.
Species on record: Rattus norvegicus
method: Open TG-GATES - Regimen: Single
Assay type: toxicity, organism-based, Sprague-Dawley
Design: regimen Single, gender Male, age 6 weeks
protocol-conditions: in vivo, po, 0 mg/kg, 24 h, tissue Blood, route gavage, dose level Control
Expressed in pg, but write only the number.

response.value for CC(=O)N1CCN(c2ccc(OCC3COC(Cn4ccnc4)(c4ccc(Cl)cc4Cl)O3)cc2)CC1 (configuration not stated) (field: MCH) = 21.8

response.value for O=C(O)COc1nn(Cc2ccccc2)c2ccccc12 (field: MCH) = 22.2

response.value for CC(C)Cc1ccc(C(C)C(=O)O)cc1 (configuration not stated) (field: MCH) = 21.4

response.value for CCN(CC)N=O (field: MCH) = 21.5

response.value for CC[C@@H](CO)NCCN[C@@H](CC)CO (field: MCH) = 22.5

response.value for CC(=O)Nc1ccc2c(c1)Cc1ccccc1-2 (field: MCH) = 22.5

response.value for CC(CCc1ccccc1)NCC(O)c1ccc(O)c(C(N)=O)c1 (configuration not stated) (field: MCH) = 21.5

---

Species: Rattus norvegicus
method: Open TG-GATES - Regimen: Single
Assay type: toxicity, organism-based, Sprague-Dawley
Design: regimen Single, gender Male, age 6 weeks
protocol-conditions: in vivo, po, 0 mg/kg, 6 h, tissue Plasma, route gavage, dose level Control
The reader will find reported gamma-GTP values listed item by item below.

compound	gamma-GTP
CC(=O)Nc1ccc2c(c1)Cc1ccccc1-2	1.2 IU/L
CC(=O)N1CCN(c2ccc(OCC3COC(Cn4ccnc4)(c4ccc(Cl)cc4Cl)O3)cc2)CC1 (configuration not stated)	1 IU/L
CC[C@@H](CO)NCCN[C@@H](CC)CO	1.6 IU/L

response.value for CCN(CC)N=O (field: gamma-GTP) = 1.4 IU/L

response.value for CC(C)Cc1ccc(C(C)C(=O)O)cc1 (configuration not stated) (field: gamma-GTP) = 1.2 IU/L

response.value for CC(CCc1ccccc1)NCC(O)c1ccc(O)c(C(N)=O)c1 (configuration not stated) (field: gamma-GTP) = 1.2 IU/L

response.value for O=C(O)COc1nn(Cc2ccccc2)c2ccccc12 (field: gamma-GTP) = 2 IU/L

The measured values listed here are drawn from ChEMBL document CHEMBL3885861.
